B1: C2CD2L (parent)
chain: LTLKVLRSSSCGDTELLGQATLPV

- Variants of: B1
- test_summary: protein stability index of a GFP-peptide fusion (GPS, HEK-293T) (PSI 1-6); higher = more stable;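 also: lentivirally expressed fusions sorted by FACS into six bins by GFP to DsRed ratio, PSI derived from sequencing read proportions per bin multiplied by bin number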
- assay_setup: c terminus: a fixed tail appended
Rule: protein stability index under 2 gives Condition not met, otherwise Condition met.

Example entries and their recorded answers appear below.
>  <monomer_sequence>
LTLKVLRSSSCGDTELLGQAKLPV [T21K]

>  <answer_label>
Condition met

$$$$
>  <monomer_sequence>
LTLKVLASSSCGDTELLGQATLPV [R7A]

>  <answer_label>
Condition not met

$$$$
>  <monomer_sequence>
LTLKVLRSSSCGDTELLGQATWPV [L22W]

>  <answer_label>
Condition met

$$$$
>  <monomer_sequence>
STLKVLRSSSCGDTELLGQATLPV [L1S]

>  <answer_label>
Condition met

$$$$
>  <monomer_sequence>
LTLKVLRSSSCGDTEHLGQATLPV [L16H]

>  <answer_label>
Condition not met

$$$$
>  <monomer_sequence>
LTLKVLRSSSCGNTELLGQATLPV [D13N]

>  <answer_label>
Condition met

$$$$

Problem: Determine whether measured protein stability index meets or exceeds 2 for LTLKVLRSSYCGDTELLGQATLPV [S10Y]
Result: Condition met

Problem: Determine whether measured protein stability index meets or exceeds 2 for LTLDVLRSSSCGDTELLGQATLPV [K4D]
Result: Condition not met

Problem: Determine whether measured protein stability index meets or exceeds 2 for LTLKVLRSSSCGDTELLGQATLPD [V24D]
Result: Condition not met

Problem: Determine whether measured protein stability index meets or exceeds 2 for LTLKVLRSSSCKDTELLGQATLPV [G12K]
Result: Condition met

Problem: Determine whether measured protein stability index meets or exceeds 2 for LTLKVLRSSSCGDTELLGQAQLPV [T21Q]
Result: Condition not met

Problem: Determine whether measured protein stability index meets or exceeds 2 for LTLKVLRSSSCGDTELLDQATLPV [G18D]
Result: Condition met
